B1: Chromodomain-helicase-DNA-binding protein 4, residues 444 to 496; numbered along this chain, Q14839 (parent)
chain: EDDHHMEFCRVCKDGGELLCCDTCPSSYHIHCLNPPLPEIPNGEWLCPRCTCP

- Variants of: B1
- assayInfo: abundance fitness (aPCA) (normalised: wild type 0, dead -1); higher = more abundant; growth selection in yeast, the domain comes from the species named
- assayConditions: Homo sapiens
Mark 0.0 for abundance fitness values under -0.2, and 1.0 for everything at or above.

Some solved entries appear below for comparison.
[[record]]
variantdesignation = "V11T"
answerlabel = 1.0

[[record]]
variantdesignation = "C21E"
answerlabel = 0.0

[[record]]
variantdesignation = "C24M"
answerlabel = 0.0

[[record]]
variantdesignation = "C9W"
answerlabel = 0.0

[[record]]
variantdesignation = "I30H"
answerlabel = 1.0


# bool: abundance fitness of H29M >= -0.2
0.0

Consider next the variant P41Q in the same way.
1.0

Consider next the variant C24L in the same way.
0.0

Consider next the variant T51G in the same way.
1.0

Consider next the variant E7L in the same way.
1.0

Consider next the variant W45Q in the same way.
0.0

Every entry's value here was drawn from the Human Domainome abundance scans (Beltran et al. 2025).
